- test.protocol: Binding affinity to goat brain tubulin assessed as increase in fluorescence intensity incubated for 30 mins by spectrofluorometric analysis
- Format: tissue-based, Capra hircus
recorded.metric: pKd
Answers are plain numbers, as −log10 of the molar value.

Task item: pKd for `COc1cc(-c2nc(N)[nH]c2-c2ccc3ccccc3n2)cc(OC)c1OC` ?
Reply: 5.30
